- tested-system: T1, human IL-36R on cells (human, UniProt Q9HB29 20-575)
- T1 sequence (looked up): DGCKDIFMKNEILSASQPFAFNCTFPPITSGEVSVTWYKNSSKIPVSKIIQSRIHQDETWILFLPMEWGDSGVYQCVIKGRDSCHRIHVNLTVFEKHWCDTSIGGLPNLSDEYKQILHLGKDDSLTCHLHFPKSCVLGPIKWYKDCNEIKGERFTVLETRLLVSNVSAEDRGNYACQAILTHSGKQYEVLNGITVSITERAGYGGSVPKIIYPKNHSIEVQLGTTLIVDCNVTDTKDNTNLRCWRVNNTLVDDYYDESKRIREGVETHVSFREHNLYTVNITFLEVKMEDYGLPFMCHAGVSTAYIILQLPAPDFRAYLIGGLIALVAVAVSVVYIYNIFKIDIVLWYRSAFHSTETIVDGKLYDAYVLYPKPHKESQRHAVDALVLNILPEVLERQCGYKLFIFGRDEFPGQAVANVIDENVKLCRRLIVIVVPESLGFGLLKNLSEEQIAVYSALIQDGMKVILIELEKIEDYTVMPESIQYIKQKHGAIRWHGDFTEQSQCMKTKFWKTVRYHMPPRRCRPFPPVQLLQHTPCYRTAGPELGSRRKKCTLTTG
- protocol-text: cell-based or functional assay
quantity-name: IC90, GM-CSF release, NCI/ADR-RES cells, trun-IL-36g
Output should be the measured figure followed by the unit it is expressed in.

Input antibody 73F6 (antibody, V domains shown, Mouse monoclonal from hybridoma; also called 73F6F8; Mouse 73F6) VH: QVQLKESGPGLVAPSQSLSITCTVSGFSLTNYAVHWVRQFPGKGLEWLGVIWSDGSTDYNAPFKSRLSINKDNSKSQVFFKMNSLQTDDTAIYYCARKGGYSGSWFAYWGQGTLVTVSA VL: DIVMTQSQKFLSTSVGVRVSVTCKASQDVGTNVLWYQQKIGQSPKALIYSASYRHSGVPDRFTGSGSGTDFTLIITNVQSEDLAEYFCQQYSRYPLTFGPGTKLELK . Output IC90, GM-CSF release, NCI/ADR-RES cells, trun-IL-36g: 1.4 nM

Input antibody 81A1 (antibody, V domains shown, Mouse monoclonal from hybridoma; also called 81A1D1; Mouse 81A1) VH: QVQLKESGPGLVAPSQSLFITCTVSGFSLSSYEINWVRQVPGKGLEWLGVIWTGITTNYNSALISRLSISKDNSKSLVFLKMNSLQTDDTAIYYCARGTGTGFYYAMDYWGQGTSVTVSS VL: DIQMTQTTSSLSASLGDRVTISCRASQDIYKYLNWYQQKPDGTLKLLIYYTSGLHSGVPSRFSGSGSGTDFSLTISNLEPEDIATYFCQQDSKFPWTFGGDTKLEIK . Output IC90, GM-CSF release, NCI/ADR-RES cells, trun-IL-36g: 0.7 nM

Input antibody 81B4 (antibody, V domains shown, Mouse monoclonal from hybridoma; also called 81B4E11; Mouse 81B4) VH: QVQLQQPGADFVRPGASMRLSCKASGYSFTSSWIHWVKQRPGQGLEWIGEINPGNVRTNYNENFRNKATLTVDKSSTTAYMQLRSLTSADSAVYYCTVVFYGEPYFPYWGQGTLVTVSA VL: QIVLTQSPAIMSASLGERVTMTCTASSSVSSSYFHWYQQKPGSSPKLWIYRTSNLASGVPGRFSGSGSGTSYSLTISSMEAEDAATYYCHQFHRSPLTFGAGTKLELK . Output IC90, GM-CSF release, NCI/ADR-RES cells, trun-IL-36g: 0.4 nM
